Measured values drawn from ChEMBL document CHEMBL1150387 for this set.

# experimental target: Tyrosine-protein kinase ABL1 (Homo sapiens) (UniProt P00519)
# Sequence (P00519 whole entry): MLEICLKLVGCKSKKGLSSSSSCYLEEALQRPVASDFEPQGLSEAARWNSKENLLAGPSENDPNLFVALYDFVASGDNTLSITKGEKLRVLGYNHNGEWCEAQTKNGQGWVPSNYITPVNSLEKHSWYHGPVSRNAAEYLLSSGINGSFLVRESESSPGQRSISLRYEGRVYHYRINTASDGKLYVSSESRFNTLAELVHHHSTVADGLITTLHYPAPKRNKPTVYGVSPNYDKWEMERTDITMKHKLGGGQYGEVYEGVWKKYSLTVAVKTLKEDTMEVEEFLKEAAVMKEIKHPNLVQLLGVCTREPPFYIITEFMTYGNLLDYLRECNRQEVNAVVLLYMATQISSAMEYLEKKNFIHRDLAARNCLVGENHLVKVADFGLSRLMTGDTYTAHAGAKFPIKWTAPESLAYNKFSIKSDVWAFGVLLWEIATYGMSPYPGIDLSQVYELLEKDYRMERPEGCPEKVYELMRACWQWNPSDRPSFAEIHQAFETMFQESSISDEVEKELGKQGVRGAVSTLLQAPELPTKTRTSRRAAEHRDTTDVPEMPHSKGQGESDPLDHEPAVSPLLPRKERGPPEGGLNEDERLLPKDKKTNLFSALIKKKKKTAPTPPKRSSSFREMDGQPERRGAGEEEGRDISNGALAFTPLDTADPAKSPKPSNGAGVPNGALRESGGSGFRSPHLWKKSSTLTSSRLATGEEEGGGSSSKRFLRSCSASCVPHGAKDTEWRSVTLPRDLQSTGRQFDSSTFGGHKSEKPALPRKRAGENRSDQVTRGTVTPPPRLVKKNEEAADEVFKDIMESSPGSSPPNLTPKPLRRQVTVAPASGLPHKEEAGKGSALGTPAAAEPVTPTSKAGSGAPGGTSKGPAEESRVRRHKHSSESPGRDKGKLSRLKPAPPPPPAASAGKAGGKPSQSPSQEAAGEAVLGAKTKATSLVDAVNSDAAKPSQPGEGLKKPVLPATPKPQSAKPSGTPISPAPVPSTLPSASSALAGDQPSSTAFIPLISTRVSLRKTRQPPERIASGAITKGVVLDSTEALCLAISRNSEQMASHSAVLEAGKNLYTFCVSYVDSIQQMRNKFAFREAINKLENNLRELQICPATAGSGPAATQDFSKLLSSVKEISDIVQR
# protocol notes: Inhibition of Abl at 10 uM by HTRF assay relative to control
Param threshold (10%) applies to inhibition; output y when value >= threshold, n when value < threshold.

Confirm if inhibition reported for the compound Cc1cccc(N(C)c2cc(Nc3cccc(C(=O)NCCCn4ccnc4)c3)ncn2)c1 is 10% or above.
y

Textbook exercise: given the entry O=C(NCCc1ccc(O)cc1)c1cccc(Nc2nccc(Nc3ccc4ncsc4c3)n2)c1 , state whether its inhibition is greater than or equal to 10%.
y

Is it the case that Cc1cccc(Nc2nccc3c2CN(C(=O)c2cc(C)n(C)c2C)CC3)c1 has inhibition reaching or exceeding 10%?
n

In plain terms: is recorded inhibition at least 10% for Cc1cccc(N(C)c2cc(Nc3cccc(C(=O)N(C)CCc4ccccn4)c3)ncn2)c1 ?
y

Check if inhibition >= 10% (inclusive). Item: Cc1cccc(N(C)c2cc(Nc3cccc(C(=O)N4CCCC5CCCCC54)c3)ncn2)c1 (configuration not stated)
y

Decide: is the reported value of inhibition for COC[C@@H]1CCCN1C(=O)[C@@H]1CCCN1c1nccc(Nc2ccccc2)n1 equal to or greater than 10%?
n

Test whether the compound Cc1ccc(CN2CCN(c3nccc(C(C#N)c4ccccn4)n3)CC2)cc1 (configuration not stated) records inhibition of 10% or higher.
n

inhibition >= 10% for Nc1nc(Nc2ccc3ncsc3c2)cc(N2CCC[C@H]2C(=O)N[C@@H](CO)c2ccccc2)n1 ?
n

Evaluate O=C(NC[C@@H]1CCCO1)c1cccc(Nc2nccc(Nc3ccc4ncsc4c3)n2)c1 : inhibition at minimum 10%?
y

Is inhibition at least 10%? Consider Cc1cccc(Oc2ccnc(N3CCC[C@H]3C(=O)NCCCn3ccnc3)n2)c1
n

Has CN(C)c1ccc(C(=O)N2CCN(c3ncnc4c3CN(Cc3ccccc3)CC4)CC2)c2ccccc12 a recorded inhibition greater than or equal to 10%?
n

Please check the record Clc1ccc2sc(CN3CCN(c4ncnc5c4CN(Cc4ccccc4)CC5)CC3)cc2c1 and state if its inhibition is at or above 10%.
n

Could you verify whether the entry O=C(NCc1ccncc1)c1cccc(Nc2cc(Nc3cccc(Br)c3)ncn2)c1 shows inhibition of no less than 10%?
y

Say whether Cc1cccc(Nc2cc(Nc3cccc(C(=O)N(CC(C)O)CC(C)O)c3)ncn2)c1 (configuration not stated) shows inhibition of 10% or more.
y

Is reported inhibition greater than or equal to 10% here: CC(=O)N1CCN(C(=O)c2cccc(Nc3cc(N(C)c4cccc(C)c4)ncn3)c2)CC1
y
